Reference for the values: patent US20170121315A1

Test system: rat hepatocytes
ASSAY SUMMARY: Hepatocyte assay for determination of metabolic stability
Assay type: in vitro ADME
MEASUREMENT PARAMETERS: after incubation with rat hepatocytes
OUTCOME MEASURE: Fmax (maximum possible bioavailability after oral administration, well-stirred) (%)

Some solved cases for reference:
COMPOUND: CS(=O)(=O)c1ccc(COc2ccc3oc(C(=O)CC(CCn4nnc5ccccc5c4=O)C(=O)O)cc3c2)cc1 (racemic) [Example 38]
TEST RESULT: 82.1
//
COMPOUND: CCCCCOc1ccc2c(C(=O)CC(CCn3nnc4ccccc4c3=O)C(=O)O)noc2c1 (racemic) [Example 140]
TEST RESULT: 64.5

[a] O=C(CC(CCn1nnc2ccccc2c1=O)C(=O)O)c1noc2cc(OCCc3ccccc3)ccc12 (racemic) [Example 144]
[b] O=C(O)[C@@H]1[C@@H](Cn2nnc3ccc(C(F)(F)F)cc3c2=O)CC[C@H]1C(=O)c1cc2cc(OCCc3ccccc3)ccc2o1 (single isomer, unassigned; enantiomer 2) [Example 159]
Prompt: Would you mind telling me which has the lower recorded Fmax (maximum possible bioavailability after oral administration, well-stirred) between a and b ? Returns: label corresponding to the selected item.
Completion: a
(a: 58.6%, b: 84.5%)

---

TARGET UNDER TEST: human macrophage elastase (HME/hMMP-12) (Homo sapiens)
Sequence (P39900 106-470): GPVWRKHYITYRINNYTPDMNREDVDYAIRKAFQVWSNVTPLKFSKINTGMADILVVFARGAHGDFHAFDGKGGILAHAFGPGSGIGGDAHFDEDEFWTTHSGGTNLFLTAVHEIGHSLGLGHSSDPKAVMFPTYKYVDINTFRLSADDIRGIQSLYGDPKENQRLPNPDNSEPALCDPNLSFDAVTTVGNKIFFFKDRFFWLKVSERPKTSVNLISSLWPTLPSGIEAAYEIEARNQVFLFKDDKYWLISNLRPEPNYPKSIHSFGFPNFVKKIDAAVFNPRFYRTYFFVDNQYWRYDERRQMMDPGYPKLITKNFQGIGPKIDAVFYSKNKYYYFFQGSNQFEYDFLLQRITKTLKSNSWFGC
ASSAY SUMMARY: In vitro HME inhibition test (standard or high-sensitivity)
MEASUREMENT PARAMETERS: in some cases mean values, rounded to two significant figures
pIC50: −log10 of the molar value.
OUTCOME MEASURE: pIC50

Some solved cases for reference:
COMPOUND: O=C(CC(CCn1nnc2ccccc2c1=O)C(=O)O)c1coc2cc(OCc3ccccc3)ccc12 (racemic) [Example 84]
TEST RESULT: 8.40
//
COMPOUND: O=C(CC(CCn1nnc2ccccc2c1=O)C(=O)O)c1coc2cc(OCC3CCCC3)ccc12 (single isomer, unassigned; (+)) [Example 80]
TEST RESULT: 9.34
//
COMPOUND: O=C(CC(CCn1nnc2ccccc2c1=O)C(=O)O)c1noc2cc(OCC3CC3)ccc12 (racemic) [Example 150]
TEST RESULT: 8.42
//
COMPOUND: O=C(CC(CCn1nnc2ccccc2c1=O)C(=O)O)c1cc2cc(OCc3ccccc3)ccc2o1 (single isomer, unassigned; (+)) [Example 30]
TEST RESULT: 9.00

[I] O=C(CC(CCn1nnc2ccccc2c1=O)C(=O)O)c1coc2cc(OCC3CCOCC3)ccc12 (single isomer, unassigned; (+)) [Example 96]
[II] O=C(CC(CCn1nnc2ccccc2c1=O)C(=O)O)c1cc2ccc(OCC(=O)C3CC3)cc2s1 (racemic) [Example 115]
[III] O=C(CC(CCn1nnc2ccccc2c1=O)C(=O)O)c1cc2cc(OCc3ccc4nonc4c3)ccc2o1 (racemic) [Example 36]
Prompt: Falling order of pIC50, please. Answer by listing the labels in the order asked for.
Completion: III, I, II

---

TARGET UNDER TEST: human macrophage elastase (HME/hMMP-12) (Homo sapiens)
ASSAY SUMMARY: In vitro HME inhibition test (standard or high-sensitivity)
MEASUREMENT PARAMETERS: in some cases mean values, rounded to two significant figures
Experimental: The potency of the compounds according to the invention with respect to HME (MMP-12) is determined in an in vitro inhibition test. The HME-mediated amidolytic cleavage of a suitable peptide substrate leads to an increase in fluorescent light therein. The signal intensity of the fluorescent light is directly proportional to the enzyme activity. […]
pIC50: −log10 of the molar value.
OUTCOME MEASURE: pIC50

Some solved cases for reference:
MOLECULE: O=C(CC(CCn1nnc2ccc(C(F)(F)F)cc2c1=O)C(=O)O)c1cc2ccc(OCC3CC3)cc2s1 (single isomer, unassigned; enantiomer 2) [Example 130]
TARGET UNDER TEST: human macrophage elastase (HME/hMMP-12) (Homo sapiens)
TEST RESULT: 9.92
--
MOLECULE: O=C(CC(CCn1nnc2ccccc2c1=O)C(=O)O)c1noc2cc(OCCC3CCCCC3)ccc12 (single isomer, unassigned; enantiomer 1) [Example 142]
TARGET UNDER TEST: human macrophage elastase (HME/hMMP-12) (Homo sapiens)
TEST RESULT: 7.82
--
MOLECULE: O=C(CC(CCn1nnc2ccccc2c1=O)C(=O)O)c1noc2cc(OCC3CCCCC3)ccc12 (racemic)
TARGET UNDER TEST: human macrophage elastase (HME/hMMP-12) (Homo sapiens)
TEST RESULT: 8.89
--
MOLECULE: CC(C)CCCCOc1ccc2oc(C(=O)CC(CCn3nnc4ccccc4c3=O)C(=O)O)cc2c1 (racemic)
TARGET UNDER TEST: human macrophage elastase (HME/hMMP-12) (Homo sapiens)
TEST RESULT: 8.41

[I] O=C(CC(CCn1nnc2ccccc2c1=O)C(=O)O)c1cc2cc(OCc3ccncc3)ccc2o1 (racemic)
[II] O=C(CC(CCn1nnc2ccccc2c1=O)C(=O)O)c1cc2cc(OCCc3ccccc3)ccc2o1 (single isomer, unassigned; (+)) [Example 21]
Prompt: Endpoint returns the identifier whose pIC50 is numerically larger, either I or II . Returns: label corresponding to the selected item.
Completion: I
(I: 9.03, II: 8.66)

---

MMP-13 (Homo sapiens, UniProt P45452) measurements of IC50, listed per entry.
OUTCOME MEASURE: IC50 (µM)

Some solved cases for reference:
COMPOUND: O=C(CC(CCn1nnc2ccccc2c1=O)C(=O)O)c1coc2cc(OCC3CCCC3)ccc12 (single isomer, unassigned; (+))
UNIT ABBREV: µM
IC50: 3.6

COMPOUND: O=C(CC(CCn1nnc2ccccc2c1=O)C(=O)O)c1onc2cc(OCc3ccccc3)ccc12 (racemic)
UNIT ABBREV: µM
IC50: 2.2

[I] O=C(CC(CCn1nnc2ccccc2c1=O)C(=O)O)c1cc2cc(OCCc3ccc(Cl)cc3)ccc2o1 (racemic)
[II] CCCCCOc1ccc2c(C(=O)CC(CCn3nnc4ccccc4c3=O)C(=O)O)coc2c1 (racemic) [Example 89]
[III] O=C(CC(CCn1nnc2ccccc2c1=O)C(=O)O)c1coc2cc(OCC3CCCCC3)ccc12 (single isomer, unassigned; (+))
[IV] O=C(CC(CCn1nnc2ccccc2c1=O)C(=O)O)c1cc2cc(OCCCC(F)(F)F)ccc2o1 (single isomer, unassigned; enantiomer 2)
Prompt: With regard to IC50, arrange the entries in ascending order, please. Answer by listing the labels in the order asked for.
Completion: II, III, I, IV
(II: 0.67 µM, III: 1.3 µM, I: 2.2 µM, IV: 4.6 µM)

---

TARGET UNDER TEST: MMP-9 (Homo sapiens, UniProt P14780)
Construct: purchased R&D Systems 911-MP
Sequence (P14780 107-707 limits assumed): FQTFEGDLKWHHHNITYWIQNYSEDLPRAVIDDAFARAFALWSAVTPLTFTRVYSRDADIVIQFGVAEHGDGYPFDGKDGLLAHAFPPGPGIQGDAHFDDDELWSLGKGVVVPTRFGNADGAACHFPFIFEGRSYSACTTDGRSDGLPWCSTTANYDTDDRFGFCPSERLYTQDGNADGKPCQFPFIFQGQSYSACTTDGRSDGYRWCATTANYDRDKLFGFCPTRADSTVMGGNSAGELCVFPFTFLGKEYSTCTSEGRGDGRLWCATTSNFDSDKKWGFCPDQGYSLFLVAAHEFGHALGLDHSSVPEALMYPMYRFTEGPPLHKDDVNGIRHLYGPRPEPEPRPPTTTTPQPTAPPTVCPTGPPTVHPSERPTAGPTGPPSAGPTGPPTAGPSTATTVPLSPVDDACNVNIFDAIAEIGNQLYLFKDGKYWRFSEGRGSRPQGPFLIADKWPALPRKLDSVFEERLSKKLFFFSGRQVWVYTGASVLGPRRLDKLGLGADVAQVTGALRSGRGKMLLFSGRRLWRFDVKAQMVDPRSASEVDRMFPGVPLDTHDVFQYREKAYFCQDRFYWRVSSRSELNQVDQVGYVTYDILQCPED
ASSAY SUMMARY: In vitro MMP-9 inhibition test
Type: biochemical
MEASUREMENT PARAMETERS: human MMP-9
OUTCOME MEASURE: IC50 (nM)

Some solved cases for reference:
COMPOUND: O=C(CC(CCn1nnc2ccccc2c1=O)C(=O)O)c1onc2cc(OCc3ccccc3)ccc12 (racemic)
TARGET UNDER TEST: MMP-9 (Homo sapiens, UniProt P14780)
UNIT ABBREV: nM
TEST RESULT: 170

COMPOUND: O=C(CC(CCn1nnc2ccccc2c1=O)C(=O)O)c1coc2cc(OCCC3CCOCC3)ccc12 (racemic)
TARGET UNDER TEST: MMP-9 (Homo sapiens, UniProt P14780)
UNIT ABBREV: nM
TEST RESULT: 180

COMPOUND: CCCCCOc1ccc2cc(C(=O)CC(CCn3nnc4ccccc4c3=O)C(=O)O)sc2c1 (racemic)
TARGET UNDER TEST: MMP-9 (Homo sapiens, UniProt P14780)
UNIT ABBREV: nM
TEST RESULT: 1200

[I] O=C(O)[C@H]1[C@H](Cn2nnc3ccc(C(F)(F)F)cc3c2=O)CC[C@@H]1C(=O)c1cc2cc(OCCc3ccccc3)ccc2o1 (racemic)
[II] O=C(CC(CCn1nnc2ccccc2c1=O)C(=O)O)c1noc2cc(OCc3cccnc3)ccc12 (racemic)
[III] CCCCCCOc1ccc2c(C(=O)CC(CCn3nnc4ccccc4c3=O)C(=O)O)coc2c1 (single isomer, unassigned; (+))
Prompt: With regard to IC50, arrange the entries in ascending order, please. Answer by listing the labels in the order asked for.
Completion: III, I, II

---

MMP-14 (Homo sapiens, UniProt P50281) measurements of pIC50, listed per entry.
pIC50: −log10 of the molar value.
OUTCOME MEASURE: pIC50

Some solved cases for reference:
COMPOUND: O=C(CC(CCn1nnc2ccccc2c1=O)C(=O)O)c1onc2cc(OCc3ccccc3)ccc12 (racemic)
pIC50: 5.03

COMPOUND: O=C(CC(CCn1nnc2ccccc2c1=O)C(=O)O)c1cc2cc(OCc3ccc(C(F)(F)F)cc3)ccc2o1 (racemic)
pIC50: 4.89

COMPOUND: O=C(O)[C@@H]1[C@@H](Cn2nnc3ccc(C(F)(F)F)cc3c2=O)CC[C@H]1C(=O)c1cc2cc(OCCc3ccccc3)ccc2o1 (single isomer, unassigned; enantiomer 2)
pIC50: 5.59

COMPOUND: O=C(CC(CCn1nnc2ccccc2c1=O)C(=O)O)c1cc2ccc(OCCc3ccccc3)cc2s1 (racemic)
pIC50: 5.68

COMPOUND: CCCCCCOc1ccc2c(C(=O)CC(CCn3nnc4ccccc4c3=O)C(=O)O)coc2c1 (single isomer, unassigned; (+))
pIC50: 5.40

COMPOUND: O=C(CC(CCn1nnc2ccccc2c1=O)C(=O)O)c1cc2ccc(OCC3CC3)cc2s1 (single isomer, unassigned; (+))
pIC50: 5.55

[1] O=C(CC(CCn1nnc2ccccc2c1=O)C(=O)O)c1cc2cc(OCCc3ccccc3)ccc2o1 (single isomer, unassigned; (+))
[2] CCCCCOc1ccc2cc(C(=O)CC(CCn3nnc4ccccc4c3=O)C(=O)O)sc2c1 (racemic)
Prompt: Endpoint returns the identifier whose pIC50 is numerically larger, either 1 or 2 . Returns: label corresponding to the selected item.
Completion: 2
(2: 4.72, 1: 4.52)
